# credit: patent US20120225837A1

CC50 at 5 days listing for selected molecules.
MEASUREMENT_NOTES: MTT cytotoxicity assay, cell having human-TK gene introduced
Format: cell-based
PARTICULARS: human
Protocol: At first, a primer was designed on the basis of the data base information of NCBI, followed by extracting DNA from B95a cells (J. Virol. 1990; 64(2): 700-5), and the TK gene of an EB virus was amplified by PCR method and cloned in the multicloning site of an expression plasmid vector pCI-neo (pCI-EB-TKneo). […] The drug sensitivity of 143B/EB virus-TK, 143B/hu-TK, 143B TK(−) cells and EB virus persistent infection cells was determined on the basis of the cytotoxicity of each drug. […]

Nc1nc(O)c2ncn(COC(CO)CO)c2n1 :: > 100 µM

The molecule listed as `Nc1nc2c(ncn2COCCO)c(=O)[nH]1` shows CC50 at 5 days equal to > 100 µM

The molecule listed as `O=c1[nH]c(=O)n([C@H]2C[C@H](O)[C@@H](CO)O2)cc1F` has a reported CC50 at 5 days of 0.27 µM

CC50 at 5 days reported for this molecule `O=c1[nH]c(=O)n([C@@H]2O[C@H](CO)[C@@H](O)[C@@H]2O)cc1C=CBr` : > 200 µM

Form field CC50 at 5 days, entry `Cc1cn([C@@H]2S[C@H](CO)[C@@H](O)[C@@H]2F)c(=O)[nH]c1=O` : > 300 µM

---

MEASUREMENT_NOTES: MTT cytotoxicity assay, cell having human-TK gene introduced
Type: cell-based
PARTICULARS: human; MTT assay, 5 days of culture; read-out: CC50 143B/hu-TK
Procedure: At first, a primer was designed on the basis of the data base information of NCBI, followed by extracting DNA from B95a cells (J. Virol. 1990; 64(2): 700-5), and the TK gene of an EB virus was amplified by PCR method and cloned in the multicloning site of an expression plasmid vector pCI-neo (pCI-EB-TKneo). […] The drug sensitivity of 143B/EB virus-TK, 143B/hu-TK, 143B TK(−) cells and EB virus persistent infection cells was determined on the basis of the cytotoxicity of each drug. […]
ENDPOINT_LABEL: CC50 at 5 days

For reference, reported CC50 at 5 days for `O=c1[nH]c(=O)n([C@H]2C[C@H](O)[C@@H](CO)O2)cc1C=CBr` stands at > 300 µM

---

Test system: 143B/EB virus-TK cells
MEASUREMENT_NOTES: cells
PARTICULARS: read-out: CC50 143B/EB Virus-TK; MTT assay, 5 days of culture
ENDPOINT_LABEL: CC50

CC50 reported for this compound Cc1cn(C2(C#N)C[C@H](O)[C@@H](CO)O2)c(=O)[nH]c1=O (stereo partly shown) [1′-CN-dT, 1-(C-cyano-2-deoxy-ribofuranosyl)thymine] : > 100 µM
